Where do these numbers come from? They come from ChEMBL document CHEMBL3813660.

# Lookup of reported Ki keyed by entry
# assayTarget: Carbonic anhydrase 9 (Homo sapiens)
# measurementProtocol: Inhibition of human carbonic anhydrase 9 catalytic domain preincubated for 6 hrs at 4 degC measured for 10 to 100 secs by stopped-flow carbon dioxide hydration assay
Dear colleague, please return just the value in nM, with no unit written.

CC(Sc1nc(-c2ccc(Cl)c(Cl)c2)c(C#N)c(=O)[nH]1)C(=O)Nc1ccc(S(N)(=O)=O)cc1 (configuration not stated) = 19

Please look at the following compound next.
// query What value of Ki has been recorded for this entry: CCC(Sc1nc(-c2cccc(OC)c2)c(C#N)c(=O)[nH]1)C(=O)Nc1ccc(S(N)(=O)=O)cc1 (configuration not stated)
// result 24

###

# Ki per entry
# assayTarget: Carbonic anhydrase 2 (Homo sapiens)
# measurementProtocol: Inhibition of human carbonic anhydrase 2 preincubated for 6 hrs at 4 degC measured for 10 to 100 secs by stopped-flow carbon dioxide hydration assay
Please state the figure in nM; there is no need to write the unit.

Previously resolved entries follow.
CC(Sc1nc(-c2ccc(Cl)c(Cl)c2)c(C#N)c(=O)[nH]1)C(=O)Nc1ccc(S(N)(=O)=O)cc1 (stereo not drawn) = 5.1
CCC(Sc1nc(-c2cccc(OC)c2)c(C#N)c(=O)[nH]1)C(=O)Nc1ccc(S(N)(=O)=O)cc1 (stereo not drawn) = 6.4

// query Query: Ki; subject: CC(Sc1nc(-c2ccc(Cl)cc2)c(C#N)c(=O)[nH]1)C(=O)Nc1ccc(S(N)(=O)=O)cc1 (stereo not drawn)
// result 5
